Attribution: patent US8859559B2

tested_system: ENaC (Epithelial Sodium Channel) (Mus musculus, UniProt Q61180+Q9WU38+Q9WU39)
Construct: Mouse kidney M-1 cells were cultivated in DMEM; endogenous in cells
protocol_details: Ussing chamber: inhibition of amiloride sensitive short circuit current (I_sc) in M-1 cells
condition_label: mouse kidney M-1 cells
quantity_kind: pIC50
Here pIC50 is given on a logarithmic scale as minus log10 of the concentration in mol/L.

# compound COC(=O)COc1ccc(CN2CC[C@@H](NC(N)=NC(=O)c3nc(Cl)c(N)nc3N)C2)cc1 ; its pIC50 = 7.14

# compound CN(Cc1cn(-c2ccc(CN3CCC(NC(N)=NC(=O)c4nc(Cl)c(N)nc4N)CC3)cc2)nn1)C(=O)CCNC(=O)OC(C)(C)C ; its pIC50 = 8.30

# compound NC(=NC(=O)c1nc(Cl)c(N)nc1N)NC1CCN(Cc2cccc(-c3cn(CCOCCOCCOCCNC(=O)c4cc(OCCOCCOCCOCCO)cc(OCCOCCOCCOCCO)c4)nn3)c2)CC1 ; its pIC50 = 7.21

# compound COC(=O)Cc1ccc(CN2CCC(NC(N)=NC(=O)c3nc(Cl)c(N)nc3N)CC2)cc1 ; its pIC50 = 8.10

# compound CN(Cc1cn(-c2ccc(CN3CCC(NC(N)=NC(=O)c4nc(Cl)c(N)nc4N)CC3)cc2)nn1)C(=O)CCN ; its pIC50 = 8.40

# compound NC(=NC(=O)c1nc(Cl)c(N)nc1N)NC1CCN(Cc2cccc(-c3cn(CCOCCOCCOCCNC(=O)c4cc(OCCOCCOCCO)cc(OCCOCCOCCO)c4)nn3)c2)CC1 ; its pIC50 = 7.51

====

tested_system: ENaC (Epithelial Sodium Channel) (Mus musculus, UniProt Q61180+Q9WU38+Q9WU39)
Construct: Mouse kidney M-1 cells were cultivated in DMEM; endogenous in cells
Sequence (Q61180 1-699): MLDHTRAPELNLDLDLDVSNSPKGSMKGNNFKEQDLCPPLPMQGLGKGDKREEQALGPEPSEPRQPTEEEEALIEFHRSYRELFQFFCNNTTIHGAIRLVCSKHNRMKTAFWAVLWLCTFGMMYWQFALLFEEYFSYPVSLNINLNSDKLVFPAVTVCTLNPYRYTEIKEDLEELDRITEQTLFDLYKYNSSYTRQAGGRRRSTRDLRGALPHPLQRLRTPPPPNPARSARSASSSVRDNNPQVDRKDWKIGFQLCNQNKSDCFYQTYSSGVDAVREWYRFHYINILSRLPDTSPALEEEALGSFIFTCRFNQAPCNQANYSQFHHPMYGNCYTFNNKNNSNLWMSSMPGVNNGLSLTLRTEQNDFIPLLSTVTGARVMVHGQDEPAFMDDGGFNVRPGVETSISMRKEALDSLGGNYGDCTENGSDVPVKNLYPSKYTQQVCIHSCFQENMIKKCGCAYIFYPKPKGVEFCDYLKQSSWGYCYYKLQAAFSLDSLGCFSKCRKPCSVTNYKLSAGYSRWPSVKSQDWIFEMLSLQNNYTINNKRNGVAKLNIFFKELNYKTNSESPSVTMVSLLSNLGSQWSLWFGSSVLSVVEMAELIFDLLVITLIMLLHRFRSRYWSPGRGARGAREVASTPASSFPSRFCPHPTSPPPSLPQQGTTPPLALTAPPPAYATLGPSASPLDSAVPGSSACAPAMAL
Sequence (Q9WU38 1-638): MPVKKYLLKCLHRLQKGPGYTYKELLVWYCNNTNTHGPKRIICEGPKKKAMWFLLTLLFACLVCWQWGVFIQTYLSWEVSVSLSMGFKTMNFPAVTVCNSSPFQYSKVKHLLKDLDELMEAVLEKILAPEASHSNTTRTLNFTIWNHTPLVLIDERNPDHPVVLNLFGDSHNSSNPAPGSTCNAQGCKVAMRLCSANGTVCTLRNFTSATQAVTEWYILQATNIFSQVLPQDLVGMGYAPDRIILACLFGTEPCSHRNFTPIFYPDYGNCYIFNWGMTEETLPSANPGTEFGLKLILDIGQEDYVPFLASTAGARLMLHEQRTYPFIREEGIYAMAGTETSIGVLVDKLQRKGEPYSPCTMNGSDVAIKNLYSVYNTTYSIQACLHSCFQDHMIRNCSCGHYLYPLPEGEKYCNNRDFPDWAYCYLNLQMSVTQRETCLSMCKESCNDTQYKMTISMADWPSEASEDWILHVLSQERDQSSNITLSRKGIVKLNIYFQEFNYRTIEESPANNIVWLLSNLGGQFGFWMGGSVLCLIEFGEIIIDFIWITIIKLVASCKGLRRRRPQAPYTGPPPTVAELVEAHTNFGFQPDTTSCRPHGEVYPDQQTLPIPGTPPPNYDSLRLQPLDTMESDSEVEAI
Sequence (Q9WU39 1-655): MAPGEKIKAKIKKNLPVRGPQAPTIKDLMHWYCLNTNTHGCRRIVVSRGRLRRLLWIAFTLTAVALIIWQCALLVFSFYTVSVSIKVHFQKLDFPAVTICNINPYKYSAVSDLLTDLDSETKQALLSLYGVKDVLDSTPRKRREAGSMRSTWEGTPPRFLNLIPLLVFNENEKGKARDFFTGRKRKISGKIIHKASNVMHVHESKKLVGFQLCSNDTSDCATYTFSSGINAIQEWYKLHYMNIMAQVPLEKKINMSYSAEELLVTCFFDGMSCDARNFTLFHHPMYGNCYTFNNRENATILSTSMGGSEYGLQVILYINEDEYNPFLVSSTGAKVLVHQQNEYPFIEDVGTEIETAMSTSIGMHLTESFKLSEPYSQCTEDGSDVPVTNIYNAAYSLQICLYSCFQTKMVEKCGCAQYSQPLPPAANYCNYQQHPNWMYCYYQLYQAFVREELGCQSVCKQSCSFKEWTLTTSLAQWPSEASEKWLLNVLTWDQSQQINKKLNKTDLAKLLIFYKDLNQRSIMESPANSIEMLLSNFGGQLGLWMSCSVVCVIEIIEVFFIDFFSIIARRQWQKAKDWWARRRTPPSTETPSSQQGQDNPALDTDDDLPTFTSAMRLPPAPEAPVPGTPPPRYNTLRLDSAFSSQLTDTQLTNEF
protocol_details: Ussing chamber: inhibition of amiloride sensitive short circuit current (I_sc) in M-1 cells
condition_label: mouse kidney M-1 cells
Please note: IC50 exactly at 10 nM is False. Only values below 10 nM get True.

Hello, is IC50 of the following compound strictly smaller than 10 nM? COC(=O)c1cccc(CN2CCC(NC(N)=NC(=O)c3nc(Cl)c(N)nc3N)CC2)c1
True

Hello, is IC50 of the following compound strictly smaller than 10 nM? COC(=O)COc1cccc(CN2CCC(NC(N)=NC(=O)c3nc(Cl)c(N)nc3N)CC2)c1
False

Hello, is IC50 of the following compound strictly smaller than 10 nM? COC(=O)c1ccc(CN2CCC(C)(NC(N)=NC(=O)c3nc(Cl)c(N)nc3N)CC2)cc1
False

Hello, is IC50 of the following compound strictly smaller than 10 nM? COC(=O)c1ccc(=O)n(Cc2ccc(CN3CCC(NC(N)=NC(=O)c4nc(Cl)c(N)nc4N)CC3)cc2)c1
True

Hello, is IC50 of the following compound strictly smaller than 10 nM? CN(C)CCNC(=O)Cc1ccc(CN2CCC(NC(N)=NC(=O)c3nc(Cl)c(N)nc3N)CC2)cc1
True

Hello, is IC50 of the following compound strictly smaller than 10 nM? NC(=NC(=O)c1nc(Cl)c(N)nc1N)NC1CCN(Cc2ccc(OCc3cn(CCOCCOCCOCCNC(=O)c4cc(OCCOCCOCCO)cc(OCCOCCOCCO)c4)nn3)cc2)CC1
False

====

tested_system: ENaC (Epithelial Sodium Channel) (Mus musculus, UniProt Q61180+Q9WU38+Q9WU39)
Construct: Mouse kidney M-1 cells were cultivated in DMEM; endogenous in cells
protocol_details: Ussing chamber: inhibition of amiloride sensitive short circuit current (I_sc) in M-1 cells
condition_label: mouse kidney M-1 cells
pIC50: −log10 of the molar value.
// f strictly below 8 in pIC50; t otherwise

Is pIC50 at least 8? Consider N/C(=N\C(=O)c1nc(Cl)c(N)nc1N)NC1CCN(Cc2ccc(OCc3cn(CCOCCOCCOCCOCCOCCO)nn3)cc2)CC1
f

Is pIC50 at least 8? Consider COC(=O)c1ccc(CN2CCC(N/C(N)=N/C(=O)c3nc(Cl)c(N)nc3N)CC2)c(OC)c1
t

Is pIC50 at least 8? Consider [N-]=[N+]=NCCOCCOCCOCCN(CCOCCOCCO)C(=O)c1ccc(=O)n(Cc2ccc(CN3CCC(NC(N)=NC(=O)c4nc(Cl)c(N)nc4N)CC3)cc2)c1
f

Is pIC50 at least 8? Consider NC(=NC(=O)c1nc(Cl)c(N)nc1N)NC1CCN(Cc2cccc(C(=O)NCCOCCO)c2)CC1
t

Is pIC50 at least 8? Consider [N-]=[N+]=NCCOCCOCCOCCn1cc(-c2ccc(CN3CCC(NC(N)=NC(=O)c4nc(Cl)c(N)nc4N)CC3)cc2)nn1
f
